The entries below are paired with their reported pKd.
Target under test: T1, recombinant human integrin-αvβ1 (human, UniProt P06756 31-992; P05556 21-728, limits assumed)
T1 construct: also called Recombinant Human Integrins
T1 sequence (P06756 31-992 limits assumed, chain 1 of 2): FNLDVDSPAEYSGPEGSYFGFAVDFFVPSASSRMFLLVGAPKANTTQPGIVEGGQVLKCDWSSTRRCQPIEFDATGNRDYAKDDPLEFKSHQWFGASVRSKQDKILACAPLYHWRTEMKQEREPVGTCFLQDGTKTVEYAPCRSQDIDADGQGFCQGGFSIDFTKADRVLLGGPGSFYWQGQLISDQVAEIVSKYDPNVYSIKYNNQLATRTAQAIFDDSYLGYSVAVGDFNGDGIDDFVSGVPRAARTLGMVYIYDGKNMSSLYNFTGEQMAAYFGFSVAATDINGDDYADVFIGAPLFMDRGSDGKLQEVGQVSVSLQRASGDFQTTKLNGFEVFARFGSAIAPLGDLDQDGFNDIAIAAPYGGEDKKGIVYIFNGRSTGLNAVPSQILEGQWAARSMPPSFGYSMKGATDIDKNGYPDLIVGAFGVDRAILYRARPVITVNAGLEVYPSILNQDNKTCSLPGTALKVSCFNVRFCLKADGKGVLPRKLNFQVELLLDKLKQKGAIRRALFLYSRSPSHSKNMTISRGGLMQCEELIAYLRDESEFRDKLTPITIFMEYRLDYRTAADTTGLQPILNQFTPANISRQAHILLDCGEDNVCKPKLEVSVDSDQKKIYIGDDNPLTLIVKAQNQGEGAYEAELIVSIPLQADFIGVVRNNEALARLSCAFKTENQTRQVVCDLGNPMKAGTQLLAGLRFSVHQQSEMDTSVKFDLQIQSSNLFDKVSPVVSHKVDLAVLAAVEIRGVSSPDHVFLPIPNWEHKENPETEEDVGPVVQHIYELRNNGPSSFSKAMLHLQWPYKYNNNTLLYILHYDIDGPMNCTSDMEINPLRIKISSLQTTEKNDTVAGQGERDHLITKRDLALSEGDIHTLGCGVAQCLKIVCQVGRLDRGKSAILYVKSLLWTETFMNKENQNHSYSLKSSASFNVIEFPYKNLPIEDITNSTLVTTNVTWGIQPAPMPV
T1 sequence (P05556 21-728 limits assumed, chain 2 of 2): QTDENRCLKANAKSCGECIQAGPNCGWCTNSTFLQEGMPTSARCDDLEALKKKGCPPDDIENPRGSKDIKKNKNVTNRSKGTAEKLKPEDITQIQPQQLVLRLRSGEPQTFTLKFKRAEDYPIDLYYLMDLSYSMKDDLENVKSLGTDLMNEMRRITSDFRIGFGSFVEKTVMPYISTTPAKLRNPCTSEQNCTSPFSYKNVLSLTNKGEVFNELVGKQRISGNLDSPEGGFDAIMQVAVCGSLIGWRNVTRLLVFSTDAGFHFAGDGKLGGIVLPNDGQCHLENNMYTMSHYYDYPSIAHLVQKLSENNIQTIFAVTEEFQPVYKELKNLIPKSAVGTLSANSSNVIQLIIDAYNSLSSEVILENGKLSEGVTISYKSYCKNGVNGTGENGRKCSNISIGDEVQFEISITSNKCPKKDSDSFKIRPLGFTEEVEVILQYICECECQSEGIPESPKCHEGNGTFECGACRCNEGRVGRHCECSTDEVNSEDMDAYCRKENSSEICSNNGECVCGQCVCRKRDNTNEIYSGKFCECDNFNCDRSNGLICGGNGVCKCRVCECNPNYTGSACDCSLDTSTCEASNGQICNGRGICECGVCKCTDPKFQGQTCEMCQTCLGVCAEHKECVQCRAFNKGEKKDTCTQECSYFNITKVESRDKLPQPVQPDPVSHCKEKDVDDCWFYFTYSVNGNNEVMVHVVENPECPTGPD
Experiment: IgG titration on recombinant human integrin αvβ1, one site-total fit; assay format not stated
pKd: −log10 of the molar value.
Value type: pKd

binder="10404 hG4/hk (antibody, V domains shown, the IgG4 constant region used is not specified; not shown: human IgG4 constant region ('hG4')) VH: EVQLVESGGGLVQPGGSLRLSCAASGFNLYSSSIHWVRQAPGKGLEWVAYIYPSYGYTSTYADSVKGRFTISADTSKNTAYLQMNSLRAEDTAVYYCARPAPYYSWYPAMDYWGQGTLVTVSS VL: DIQMTQSPSSLSASVGDRVTITCRASQSVSSAVAWYQQKPGKAPKLLIYSASSLYSGVPSRFSGSRSGTDFTLTISSLQPEDFATYYCQQASGSPFTFGQGTKVEIKR" endpoint_value=9.45
binder="10404 hG1 LALA PG/hk (antibody, V domains shown, not shown: human IgG1 constant region with 'LALA PG' changes) VH: EVQLVESGGGLVQPGGSLRLSCAASGFNLYSSSIHWVRQAPGKGLEWVAYIYPSYGYTSTYADSVKGRFTISADTSKNTAYLQMNSLRAEDTAVYYCARPAPYYSWYPAMDYWGQGTLVTVSS VL: DIQMTQSPSSLSASVGDRVTITCRASQSVSSAVAWYQQKPGKAPKLLIYSASSLYSGVPSRFSGSRSGTDFTLTISSLQPEDFATYYCQQASGSPFTFGQGTKVEIKR" endpoint_value=9.61
binder="10392 hG1 LALA PG/hk (antibody, human IgG1, V domains shown, not shown: human IgG1 constant region with 'LALA PG' changes) VH: EVQLVESGGGLVQPGGSLRLSCAASGFNIYYSSIHWVRQAPGKGLEWVASISSSSGSTSTYADSVKGRFTISADTSKNTAYLQMNSLRAEDTAVYYCARSYYGGGYPYALDYWGQGTLVTVSS VL: DIQMTQSPSSLSASVGDRVTITCRASQSVSSAVAWYQQKPGKAPKLLIYSASSLYSGVPSRFSGSRSGTDFTLTISSLQPEDFATYYCQQYFGGLITFGQGTKVEIKR" endpoint_value=9.39
binder="IgG clone 10404, hG1/hk (pSCSTa-hG1 (10404) heavy chain, pSCSTa-hK (10404) light chain) (antibody, V domains shown, Full-length human IgG1/kappa made in Expi293 cells) VH: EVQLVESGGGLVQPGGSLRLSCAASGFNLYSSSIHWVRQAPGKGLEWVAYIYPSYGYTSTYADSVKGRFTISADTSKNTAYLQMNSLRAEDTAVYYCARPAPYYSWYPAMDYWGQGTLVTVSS VL: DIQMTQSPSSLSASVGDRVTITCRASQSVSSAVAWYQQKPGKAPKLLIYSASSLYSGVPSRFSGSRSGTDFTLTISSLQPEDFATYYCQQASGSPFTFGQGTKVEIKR" endpoint_value=9.57
binder="IgG clone 10392, hG1/hk (pSCSTa-hG1 (10392) heavy chain, pSCSTa-hK (10392) light chain) (antibody, V domains shown, Full-length human IgG1/kappa made in Expi293 cells) VH: EVQLVESGGGLVQPGGSLRLSCAASGFNIYYSSIHWVRQAPGKGLEWVASISSSSGSTSTYADSVKGRFTISADTSKNTAYLQMNSLRAEDTAVYYCARSYYGGGYPYALDYWGQGTLVTVSS VL: DIQMTQSPSSLSASVGDRVTITCRASQSVSSAVAWYQQKPGKAPKLLIYSASSLYSGVPSRFSGSRSGTDFTLTISSLQPEDFATYYCQQYFGGLITFGQGTKVEIKR" endpoint_value=9.38
binder="10392 hG4/hk (antibody, human IgG4, V domains shown, not shown: human IgG4 constant region ('hG4')) VH: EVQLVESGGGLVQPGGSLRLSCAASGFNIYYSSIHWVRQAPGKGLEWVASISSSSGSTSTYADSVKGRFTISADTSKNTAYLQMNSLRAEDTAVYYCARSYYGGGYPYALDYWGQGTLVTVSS VL: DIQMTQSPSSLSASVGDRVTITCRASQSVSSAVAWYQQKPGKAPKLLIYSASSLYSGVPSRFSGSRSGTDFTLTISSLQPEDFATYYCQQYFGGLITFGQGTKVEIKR" endpoint_value=9.07
